# Measured On: human plasmin (human, UniProt P00747 97-810, limits assumed)
# Sequence (P00747 97-810 limits assumed): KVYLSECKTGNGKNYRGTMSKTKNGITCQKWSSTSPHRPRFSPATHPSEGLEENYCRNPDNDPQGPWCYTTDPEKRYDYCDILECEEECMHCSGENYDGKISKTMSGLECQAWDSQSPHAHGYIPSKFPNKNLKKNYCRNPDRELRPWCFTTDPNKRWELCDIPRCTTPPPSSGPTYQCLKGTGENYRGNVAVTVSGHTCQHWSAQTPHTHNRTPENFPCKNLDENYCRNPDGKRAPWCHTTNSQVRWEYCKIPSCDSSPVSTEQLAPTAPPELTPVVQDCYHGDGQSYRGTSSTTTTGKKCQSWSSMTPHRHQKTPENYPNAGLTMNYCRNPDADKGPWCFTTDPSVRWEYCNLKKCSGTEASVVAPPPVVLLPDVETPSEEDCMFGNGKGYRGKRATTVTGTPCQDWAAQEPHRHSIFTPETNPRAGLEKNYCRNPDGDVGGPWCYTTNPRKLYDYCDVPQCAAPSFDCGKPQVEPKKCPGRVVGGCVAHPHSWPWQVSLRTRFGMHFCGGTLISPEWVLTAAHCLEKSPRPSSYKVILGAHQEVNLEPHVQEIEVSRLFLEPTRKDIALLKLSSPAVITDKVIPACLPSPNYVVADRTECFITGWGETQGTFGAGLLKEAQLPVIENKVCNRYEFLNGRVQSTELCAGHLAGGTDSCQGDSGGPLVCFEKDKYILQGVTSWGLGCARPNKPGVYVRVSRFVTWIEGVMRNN
# Assay Name: cell-based or functional assay
This section presents binders with their documented IC50 (nM), inhibition of plasmin activity (S2251 hydrolysis) values.
Supply the numeric figure in nM, leaving out any unit text.

plasmin-inhibiting polypeptide comprising the amino acid sequence set forth in SEQ ID NO:5 (designed binder, Expressed in E. coli; also called 60A) NAEICLLPLDYGPCRARLLRYYYDRYTQSCRQFLYGGCEGNANNFYTWEACDDACWRIEK | 3.4
plasmin-inhibiting polypeptide comprising the amino acid sequence set forth in SEQ ID NO:6 (designed binder, Purified recombinant polypeptide; also called 63-residue) NAEICLLPLDYGPCRARLLRYYYDRYTQSCRQFLYGGCEGNANNFYTWEACDDACWRIEKVPK | 1.8
plasmin-inhibiting polypeptide comprising the amino acid sequence set forth in SEQ ID NO:3 (designed binder, Expressed in E. coli; also called DM; 60B) NAEICLLPLDTGPCRARLLRYYYDRYTQSCRQFLYGGCEGNANNFYTWEACDDACWRIEK | 1.8

# context switch: different binder, same IC50 (nM), inhibition of plasmin activity (S2251 hydrolysis)
Challenge: Quick check: IC50 (nM), inhibition of plasmin activity (S2251 hydrolysis) of plasmin-inhibiting polypeptide comprising the amino acid sequence set forth in SEQ ID NO:4 (designed binder) NAEICLLPLDTGPCRARLLRYYYDRYTQSCRQFLYGGCEGNANNFYTWEACDDACWRIEKVPK ?
Response given: 0.8
